Observed pIC50 values for UniProt:P51570 are listed in what follows.
Sequence (P51570 whole entry): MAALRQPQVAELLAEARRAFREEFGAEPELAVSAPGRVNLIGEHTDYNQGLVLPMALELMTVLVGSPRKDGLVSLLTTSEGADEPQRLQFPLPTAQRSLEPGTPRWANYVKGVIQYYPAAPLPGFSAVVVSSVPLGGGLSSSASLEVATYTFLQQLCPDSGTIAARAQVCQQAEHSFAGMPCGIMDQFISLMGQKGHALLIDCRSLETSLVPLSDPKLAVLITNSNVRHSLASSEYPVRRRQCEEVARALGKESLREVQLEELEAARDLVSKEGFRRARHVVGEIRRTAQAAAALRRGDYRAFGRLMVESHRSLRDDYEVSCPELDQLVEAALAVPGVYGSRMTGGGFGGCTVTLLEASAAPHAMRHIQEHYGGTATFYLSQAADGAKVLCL
Scale explanation: pIC50 corresponds to minus log10 of a concentration expressed in moles per litre.

Solved cases below.
{"compound": "CC1=C(C(=O)Nc2nc3ccccc3s2)C2(CCCC2)N=C(Nc2nc3ccccc3o2)N1", "tested on": "UniProt:P51570", "recorded measurement": 4.59}
{"compound": "Cc1ccc2oc(NC3=NC4(CCCC4)C4=C(CCCC4=O)N3)nc2c1", "tested on": "UniProt:P51570", "recorded measurement": 5.23}
{"compound": "O=C1CCCC2=C1C1(CCS(=O)(=O)C1)N=C(Nc1nc3ccccc3o1)N2 (centres unmarked)", "tested on": "UniProt:P51570", "recorded measurement": 5.18}
{"compound": "O=C1CCCC2=C1C(c1ncccc1C(F)(F)F)N=C(Nc1nc3ccccc3o1)N2 (centres unmarked)", "tested on": "UniProt:P51570", "recorded measurement": 5.18}
{"compound": "Cc1cc(C2N=C(Nc3nc4ccccc4o3)NC3=C2C(=O)CCC3)n[nH]1 (centres unmarked)", "tested on": "UniProt:P51570", "recorded measurement": 4.74}

[in] Could you share which pIC50 value was measured for CC1=C(C(=O)Nc2ccccc2)C(c2ccccc2Br)N=C(Nc2nc3ccccc3o2)N1 (centres unmarked) ?
[out] 5.04

[in] Likewise for O=C1CCCC2=C1C1(CCCC1)N=C(Nc1nc3cc(Br)ccc3o1)N2 ?
[out] 5.13

[in] Also, O=C1CCC2=C1C1(CCCC1)N=C(Nc1nc3ccccc3o1)N2 please.
[out] 4.88
